Target: UniProt G5EF15
Assay: inhibitors of POS-1/mex-3 RNA binding, dose response, biochemical, fluorescence polarization (AID 1964)
Assignment: determine reported log10 EC50 for the given compounds.
# log10 transformed; quantity=EC50; unit=µM

If you can, please state the reported log10 EC50 value of COc1ccc(C2C(C(=O)c3ccco3)C(=O)C(=O)N2c2nnc(C)s2)cc1 (stereo not given) .
2.04

Please report the recorded log10 EC50 for CC1(C)CC(=O)C2Sc3ccccc3N=C2C1 (stereo not given) .
1.64

Sample O=C1c2cccc([N+](=O)[O-])c2C(=O)N1n1c(O)csc1=S — what was its log10 EC50?
1.40

State the recorded log10 EC50 for this entry: Cc1ccc(C2C3CN(C(C)C)CCC3=C(C#N)C(=N)C2(C#N)C#N)cc1 (stereo not given)
0.85

Query: log10 EC50; subject: O=C1Nc2ccccc2/C1=N/NC(=S)Nc1ccc(O)cc1
1.21

Which log10 EC50 value belongs to CCOc1cc(C2C(C(C)=O)=C(C)OC(=N)C2C#N)cc(Br)c1O (stereo not given) ?
1.09

Given the entry Fc1ccc(C2=Nc3ncnn3C(c3ccco3)C2)cc1 (stereo not given) , report its measured log10 EC50.
1.17

###

Molecular target: POsterior Segregation (Caenorhabditis elegans)
Assay: inhibitors of POS-1/mex-3 RNA binding, dose response, biochemical, fluorescence polarization (AID 1964)
hey, just use 1 (yes) if measured EC50 is less than 20 µM, otherwise 0 (no)

Would you kindly verify if EC50 of CC(N=Nc1ccc([N+](=O)[O-])cc1[N+](=O)[O-])c1cc2c(ccc3ccccc32)oc1=O (stereo unspecified) is strictly less than 20 µM?
0 (no)

Dear reviewer, please state whether Clc1ccc(C2=Nc3ncnn3C(c3ccco3)C2)cc1 (stereo unspecified) has EC50 strictly beneath 20 µM.
0 (no)

In the record for Cc1nnc(SC(=Cc2ccc(OCc3ccc(C(=O)O)cc3)cc2)C(=O)O)[nH]1 , is EC50 less than 20 µM?
1 (yes)

Record O=C1C=C(NNC(=O)c2sc3ccccc3c2Cl)CCC1 : is its EC50 strictly below 20 µM?
0 (no)

Does O=C(O)c1ccc(NN=CC2=C(N3CCOCC3)C(=Cc3ccccc3)CC2)cc1 have EC50 strictly under 20 µM?
0 (no)

State whether 20 µM exceeds EC50 recorded for Cc1ccc(Cl)c2c1=NC(=O)C=2NNc1ccccc1 .
1 (yes)

Say whether its EC50 is strictly beneath 20 µM. Entry: CCCCOc1cccc(C2C(C(=O)c3ccc(C)o3)C(=O)C(=O)N2c2nnc(C)s2)c1 (stereo unspecified)
0 (no)

Input COc1ccc(C2C(C(=O)c3ccco3)C(=O)C(=O)N2c2nnc(C)s2)cc1OC (stereo unspecified) ; condition: EC50 strictly below 20 µM. Does it hold?
0 (no)

Bench note: check whether N#CC1C(=N)C2=C(N3CCCCC3)CCCC2C1(C#N)C#N (stereo unspecified) shows EC50 below 20 µM
0 (no)

Hello, I'm reviewing records and need to know if EC50 of Cc1ccc(N/N=C2/C(=O)Nc3ccc(F)cc32)cc1 is below 20 µM. Could you check?
0 (no)

Please indicate whether the reported EC50 of O=CC(C=Nc1ccccn1)c1nc2ccccc2o1 (stereo unspecified) is strictly below 20 µM.
0 (no)

Is it true that EC50 reported for CN1CCC2=C(C#N)C(=N)C(C#N)(C#N)[C@H](c3cccc(Cl)c3)C2C1 (stereo partly specified) is less than 20 µM?
1 (yes)

API: query returns whether the molecule falls strictly under 20 µM in EC50. Query: N#CC1C(=N)OC2=C(C(=O)CC(c3ccco3)C2)C1c1ccc(OCc2c(F)cccc2Cl)cc1 (stereo unspecified)
0 (no)

Dear reviewer, please state whether Cc1c(C(=O)NN=Cc2ccco2)[nH][nH]c1=O has EC50 strictly beneath 20 µM.
0 (no)

Field: below-cutoff. Rule: recorded EC50 strictly less than 20 µM. Subject: Nc1c(-c2nc3ccccc3[nH]2)c(O)cn1-c1ccc(CC(=O)O)cc1 [MLS000565528]
1 (yes)

Consider the molecule CCCCCCN1C(=O)C(=CNc2ccccc2N2CCOCC2)C(=O)NC1=S [MLS000333666] . Is its EC50 strictly less than 20 µM?
0 (no)

Does the reported EC50 of COc1ccccc1-n1c(O)c2n(-c3ccc(C)cc3)[nH]c(C(=O)c3ccccc3)c-2c1=O stay below 20 µM?
1 (yes)

In the record for COc1cccc(C2C3=C(CC(c4ccco4)CC3=O)OC(=N)C2C#N)c1OCc1ccc(F)cc1 (stereo unspecified) [SMR000021029] , is EC50 less than 20 µM?
0 (no)

Strictly below 20 µM: is that where EC50 of N#CC1=C2CCCCC2C(c2cccnc2)C(C#N)(C#N)C1=N (stereo unspecified) sits?
0 (no)

Identify whether the molecule O=C1CCCC2=Nc3cc(Cl)ccc3SC12 (stereo unspecified) [MLS000333002] records EC50 below 20 µM.
1 (yes)

# strict comparison: is reported EC50 < 20 µM? input = N#CCC(=N)C(C#N)C#N [1,1,3-tricyano-2-amino-1-propene]
0 (no)

###

Molecular target: POsterior Segregation (Caenorhabditis elegans, UniProt G5EF15)
Sequence (G5EF15 whole entry): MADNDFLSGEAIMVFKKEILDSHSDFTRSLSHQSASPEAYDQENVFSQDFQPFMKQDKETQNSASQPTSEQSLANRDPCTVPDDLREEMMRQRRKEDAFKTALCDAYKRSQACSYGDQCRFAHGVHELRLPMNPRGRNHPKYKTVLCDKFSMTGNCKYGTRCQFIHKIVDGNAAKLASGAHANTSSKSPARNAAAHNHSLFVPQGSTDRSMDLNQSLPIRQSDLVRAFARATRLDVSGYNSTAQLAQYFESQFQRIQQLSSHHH
Experiment: inhibitors of POS-1/mex-3 RNA binding, dose response, biochemical, fluorescence polarization (AID 1964)
endpoint label: EC50 (µM)
# unit: µM | format: bare number

Fill in the blank: the reported EC50 of COc1ccc(C2C(C(=O)c3cccs3)C(=O)C(=O)N2c2nnc(C)s2)cc1OC (stereo not given) is ____.
7.2

Would you kindly share the measured EC50 for O=[N+]([O-])c1ccc(/N=N/c2ncc[nH]2)cc1 ?
69.1

Reported EC50 for O=C1C(=O)N(c2ncccn2)C(c2cccs2)C1C(=O)c1ccco1 (stereo not given) : what is it?
39.9

Entry under review: COc1ccc(C2C(C(=O)c3cccs3)C(=O)C(=O)N2c2nncs2)cc1 (stereo not given) . Reported EC50?
0.549

Look up EC50: COc1[nH]c(N=Cc2ccccc2)c(C#N)c1C#N
6.46

###

Can you tell me EC50 for the items I'm about to list?
Target: POsterior Segregation (Caenorhabditis elegans, UniProt G5EF15)
Assay: inhibitors of POS-1/mex-3 RNA binding, dose response, biochemical, fluorescence polarization (AID 1964)

Query (compound): COc1ccc(N2C(=O)C(=Nc3ccccc3O)C(Cl)C2=O)cc1 (stereo not given) ; field requested: EC50
> 300 µM

Tell me the measured EC50 of Cc1cccc(Nc2nc(O)cs2)c1 , please.
> 300 µM

Would you kindly share the measured EC50 for C=CCOc1cccc(C2C(C(=O)c3ccc(C)o3)C(=O)C(=O)N2c2nnc(C)s2)c1 (stereo not given) ?
> 300 µM

For the compound COc1ccc(NC=C2C(=O)NC(=S)N(Cc3ccccc3)C2=O)c(OC)c1 , what EC50 is on record?
> 300 µM

Consider the compound C=CCOc1ccc(C2C(C(=O)c3ccco3)C(=O)C(=O)N2c2nnc(C)s2)cc1 (stereo not given) and give its measured EC50.
> 300 µM

Given CCCCN1C(=O)/C(=C2/Sc3ccccc3N2C)SC1=Nc1nnc[nH]1 , state its recorded EC50.
58.7 µM

# lookup: EC50 of CSc1nnc(N2C(=O)C(=O)C(C(=O)c3ccco3)C2c2ccc(F)cc2)s1 (stereo not given)
150 µM

Would you mind telling me what EC50 value was observed for Cc1cc(CN=Nc2ccc([N+](=O)[O-])cn2)c(C)n1-c1cccc(C(=O)O)c1 ?
> 300 µM

Entry Oc1csc(N=NCc2cccs2)n1 has what EC50?
> 300 µM

EC50 lookup needed for O=C(CC=Nc1ccc([N+](=O)[O-])cc1)c1ccc(Br)cc1 , thanks.
> 300 µM

###

Target: POsterior Segregation (Caenorhabditis elegans)
Assay: inhibitors of POS-1/mex-3 RNA binding, dose response, biochemical, fluorescence polarization (AID 1964)
Kindly supply the reported EC50 values for the records listed here.
Report only the number, with the unit µM understood.

Please look up its EC50: Cc1cc(O)c(C(C)C)cc1Nc1csc(=O)[nH]1
38.9

Look up EC50 for this compound: N#CC1C(=N)Oc2ccc3ccc(O)cc3c2C1c1ccsc1 (stereo not given)
76.1

Requested read-out: EC50. Entry: CN1C(=O)/C(=C/c2ccc(-c3ccccc3[N+](=O)[O-])o2)S/C1=N/c1ccc(Cl)c(C(=O)O)c1
36.3

What value of EC50 has been reported for the following compound? Cc1ccc(C(=O)Cc2nc3cc(C)ccc3oc2=O)cc1
7.64

Item under review: [H]/N=C1/OC23CCCCC2C(C#N)(C#N)C1(C#N)C(c1ccc(OC)cc1)O3 (stereo not given) . Reported EC50?
12.4

May I ask what EC50 has been recorded for CCOc1cc(C=C2SC(Nc3ccc(CC)cc3)=NC2=O)ccc1OCC(=O)O ?
25.6

###

Please respond with reported EC50 for every item in the list.
Molecular target: POsterior Segregation (Caenorhabditis elegans, UniProt G5EF15)
Experiment: inhibitors of POS-1/mex-3 RNA binding, dose response, biochemical, fluorescence polarization (AID 1964)
Give the quantity in µM, number only.

Requested read-out: EC50. Entry: Cc1nnc(=O)[nH]c1N=NCC1C=CC(=O)C([N+](=O)[O-])=C1 (stereo not given)
169

Suppose we examine the molecule COc1ccc(C(C)N=Nc2nc3ccccc3nc2C)cc1OC (stereo not given) ; what EC50 value has been reported?
5.07

Which value of EC50 has been reported for CCOc1ccc(N2C(=O)NC(=O)C(=Cc3c[nH]c4ccccc34)C2=O)cc1 in the records?
20.9

Reported EC50 for COC(=O)c1[nH]c2cc(OC)c(OC)cc2c1CN=Nc1ccccc1 : what is it?
20
